The measurements presented in this section are drawn from patent US20200263231A1.

# System: calf thymus DNA
# TEST PROTOCOL: Fluorescence emission and enhancement of compounds bound to calf thymus DNA
# Format: binding
# RUN CONDITIONS: 0.8 μM compound with 500 ng/ml calf thymus DNA in TE buffer; emission area 500-715 nm compared to compound 1, defined as 1000-fold
# Protocol: Compounds 1-65 were prepared and their fluorescence absorption and emission characteristics were measured. Intrinsic fluorescence of the compounds only (without DNA) was negligible. […] Measurements were made using PerkinElmer LS 55 (F-11) Fluorescence spectrometer. Samples were excited at 488 nm and fluorescence emission was measured with emission slit widths of 2.5 nm. Absorption maxima were determined according to standard techniques. […]

[
  {
    "COMPOUND": "C[n+]1c(/C=C2/C=C(CCC[N+](C)(C)C)N(c3ccccc3)c3ccccc32)sc2ccccc21",
    "ASSAYED SYSTEM": "calf thymus DNA",
    "Fluorescence Enhancement": "136 fold"
  },
  {
    "COMPOUND": "CCC[N+](C)(C)CCCN(C)C1=C/C(=C/c2sc3ccccc3[n+]2C)c2ccccc2N1c1ccccc1.[I-].[I-]",
    "ASSAYED SYSTEM": "calf thymus DNA",
    "Fluorescence Enhancement": "630 fold"
  },
  {
    "COMPOUND": "CCN(CC[N+](C)(C)C)C1=C/C(=C/c2sc3ccccc3[n+]2C)c2ccc(OC)cc2N1c1ccccc1.[I-].[I-]",
    "ASSAYED SYSTEM": "calf thymus DNA",
    "Fluorescence Enhancement": "894 fold"
  },
  {
    "COMPOUND": "CCCCN(CCCN(C)C)C1=CC(=Cc2sc3ccccc3[n+]2C)c2ccc(OC)cc2N1c1ccccc1.[I-]",
    "ASSAYED SYSTEM": "calf thymus DNA",
    "Fluorescence Enhancement": "1071 fold"
  }
]
